assay: chemical genetic growth profiling, strain panel (AID 1159580);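 also: tested at 20 µM; growth read once vehicle control cultures reached saturation at 30 °C; 1 = growth at the plate median or of vehicle wells; lower values mean less growth of the strain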; details: S. cerevisiae deletion strains, growth OD, locus YNL128W, strain TEP1, stronger effect = lower value
The campaign covered roughly 5,500 compounds. About 2,000 (36%) were called active. Roughly 18% stayed inconclusive and do not appear here. This is one part of the list.
Catalogue of normalized growth values

molecule: O=C(O)CSCC(=O)N1CCc2c([nH]c3ccccc23)C1C(F)(F)F (stereo unspecified)
normalized growth: 0.987

molecule: CC(=O)O[C@H]1C(=O)[C@@]2(C)C([C@H](OC(=O)c3ccccc3)[C@]3(O)C[C@H](OC(=O)[C@H](O)[C@@H](NC(=O)c4ccccc4)c4ccccc4)C(C)=C1C3(C)C)[C@]1(OC(C)=O)CO[C@@H]1C[C@@H]2O (stereo partly specified)
normalized growth: 1.05

molecule: CCCCCCCCCCCCC[N+](C)(C)Cc1ccccc1
normalized growth: 0.0628

molecule: Nc1cc(Cl)c(NC2=NCCN2)c(Cl)c1
normalized growth: 1

molecule: CC(=O)OC1C(=O)C2(C)C(O)CC3OCC3(OC(C)=O)C2C(OC(=O)c2ccccc2)C2(O)CC(OC(=O)C(O)C(NC(=O)c3ccccc3)c3ccccc3)C(C)=C1C2(C)C (stereo unspecified)
normalized growth: 1

molecule: COC(=O)C1[C@H]2C[C@H]3c4[nH]c5ccccc5c4CCN3C[C@@H]2CC[C@@H]1O (stereo partly specified)
normalized growth: 1.02

molecule: CC(C)=CCc1c(O)cc(C)oc1=O
normalized growth: 1.01

molecule: CN(C)/C=C(\C#N)C(=O)Nc1ccc(F)c(Cl)c1
normalized growth: 1

molecule: N=c1nc(N2CCCCC2)cc(N)n1O
normalized growth: 0.953

molecule: OCCN(CCO)c1nc(N2CCCCC2)c2nc(N(CCO)CCO)nc(N3CCCCC3)c2n1
normalized growth: 0.995

molecule: c1ccc2cc(CC3=NCCN3)ccc2c1
normalized growth: 1

molecule: Oc1c(Cl)c(Cl)c(Cl)c(Cl)c1Cl
normalized growth: 0.878

molecule: N#C/C(=C\c1ccc(O)c(O)c1)C(=O)Nc1ccccc1
normalized growth: 1.04

molecule: Cc1nc(N=Nc2ccc(C(=O)O)cc2)c(COP(=O)(O)O)c(C=O)c1O
normalized growth: 0.99

molecule: O=C(O)c1cnn(-c2ccccc2)c1C(F)(F)F
normalized growth: 1.01

molecule: c1ccc(CC2=NCCN2)cc1
normalized growth: 1.01

molecule: O=[N+]([O-])O[C@H]1CO[C@H]2[C@@H]1OC[C@H]2O[N+](=O)[O-]
normalized growth: 1.03

molecule: O=C(OCCN1CCCCC1)c1c[nH]c2ccccc12
normalized growth: 1.01

molecule: CCCCCCCc1c(O)c2ccccc2[nH]c1=O
normalized growth: 1.01

molecule: COC(=O)COc1ccc(Cl)cc1Cl
normalized growth: 1.01

molecule: C[CH2][Hg][S]c1ccccc1C(=O)O
normalized growth: 0.0596
